Where these numbers come from: patent US20080058263A1

Tgt: T1, VEGFR-2-Fc (UniProt P35968 20-322)
T1 construct: domain: first 3 Ig domains; conditioned supernatant of 293T cells; also called VEGFR-2-Fc fusion protein; not shown: Fc fragment of the pIg vector
Assay details: receptor-Fc IP

| Binder | binding result |
| --- | --- |
| 54-15 (ligand) AHYNTEILKSIDNEWRKTQCMPIETLVDIFQEFGVATNTFFKPSCVPLMRCGGCCNSEGLQCVPTEESNITMQIMRITVPLSQGPKPVTISFANHTSCRCMSKLD | no binding |
| 64-14 (ligand) GQNHHEVVKFMDVYQRSYCHPREVCIDVGKEFGVATNTFFKPSCVPLMRCGGCCNDEGLECMNTSTSYLSKTLFEITVPLSQGPKPVTISFANHTSCRCMSKLD | no binding |
